B1: POU domain, class 3, transcription factor 3, residues 408 to 463; numbered along this chain, P20264 (parent)
chain: KKRTSIEVSVKGALESHFLKCPKPSAQEITNLADSLQLEKEVVRVWFCNRRQKEKR

- Variants of: B1
- assay.remarks: abundance fitness (aPCA) (normalised: wild type 0, dead -1); higher = more abundant; growth selection in yeast, the domain comes from the species named
- condition.set: Homo sapiens

| mutation.label | abundance fitness |
| --- | --- |
| F18C | -0.935 |
| P22H | -0.448 |
| L38P | -0.951 |
| Q52T | -0.227 |
| V10F | -0.291 |
| A26C | -0.102 |
| A33H | -0.513 |
| T30R | -0.17 |
| K55M | -0.096 |
| T4E | -0.082 |
| E39W | -0.89 |
| N49H | -0.034 |
| L14F | -0.899 |
| I29T | -0.849 |
| Q52N | -0.17 |
| V10Q | 0.07 |
| L32A | -0.92 |
| A13V | 0.111 |
